Just for reference, PubChem BioAssay is where these values come from.

Biological target: Follistatin (Homo sapiens) (UniProt P19883)
Sequence (P19883 whole entry, looked up): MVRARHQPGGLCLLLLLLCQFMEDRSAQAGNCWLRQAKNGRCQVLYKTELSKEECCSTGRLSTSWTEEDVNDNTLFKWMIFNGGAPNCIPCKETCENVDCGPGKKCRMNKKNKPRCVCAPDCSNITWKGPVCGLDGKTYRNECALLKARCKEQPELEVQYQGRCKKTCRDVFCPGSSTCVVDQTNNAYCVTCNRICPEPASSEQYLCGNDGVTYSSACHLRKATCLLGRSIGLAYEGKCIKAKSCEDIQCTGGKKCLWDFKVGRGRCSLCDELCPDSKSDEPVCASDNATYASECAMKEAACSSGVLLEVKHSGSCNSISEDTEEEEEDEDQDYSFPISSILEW
Test: follistatin binders on small-molecule microarrays, primary screen, biochemical, small-molecule microarray, 635/667 nm fluorescence (AID 1132)
Conditions: FST binding, 635 nm fluorescence, higher = more signal
Listing of entries alongside the reported composite z-score.
Write the value as a bare number.

Would you please look over these solved cases?
> print(dat)
                                   molecule  attribute.measured  numeric.readout
1  C=C(/C(=C/C[C@H](OC(C)=O)c1ccc(OCCO)cc1)c1cnc2ccccc2c1)C(C)C   composite z-score             1.45
2  CO[C@@H]1COC(=O)CC=C[C@@H](C)COC(=O)[C@H](COCc2ccccc2)NC(=O)CC=C[C@H]1C   composite z-score             1.24
3  COC(=O)[C@H](C)NC(=O)CCC1CC(OC(=O)NCc2ccc3c(c2)OCO3)CC2(CCCC(COC(=O)NCCOc3ccccc3)O2)O1 (some centres not stated)   composite z-score            0.463
4  CN(C)CCCNC(=O)[C@@H]1c2ccccc2C(=O)N(Cc2ccccc2)[C@H]1c1ccc(CO)cc1   composite z-score           -0.242
5  CO[C@H]1O[C@H](CO)[C@@H](OC(=O)Nc2ccc3c(c2)OCO3)[C@H](OC(=O)Nc2ccccc2-c2ccccc2)[C@@H]1OC(=O)Nc1ccccc1-c1ccccc1   composite z-score             1.14
6  C[C@H](c1ccccc1)N1C(=O)[C@H]2[C@H]3[C@H](O)[C@H](O)CC(=O)[C@@H]3CC[C@H]2C1=O   composite z-score            0.469

In: Can you look up composite z-score on Follistatin (Homo sapiens) (UniProt P19883) for COC(=O)CC=C[C@@H](C)[C@@H](C=NO[C@H](C)c1cn([C@@H]2COC[C@H]2O)nn1)OC ?
Out: 0.341

====

Biological target: Neurogenic locus notch homolog protein 2 (Homo sapiens) (UniProt Q04721)
Sequence (Q04721 whole entry, looked up): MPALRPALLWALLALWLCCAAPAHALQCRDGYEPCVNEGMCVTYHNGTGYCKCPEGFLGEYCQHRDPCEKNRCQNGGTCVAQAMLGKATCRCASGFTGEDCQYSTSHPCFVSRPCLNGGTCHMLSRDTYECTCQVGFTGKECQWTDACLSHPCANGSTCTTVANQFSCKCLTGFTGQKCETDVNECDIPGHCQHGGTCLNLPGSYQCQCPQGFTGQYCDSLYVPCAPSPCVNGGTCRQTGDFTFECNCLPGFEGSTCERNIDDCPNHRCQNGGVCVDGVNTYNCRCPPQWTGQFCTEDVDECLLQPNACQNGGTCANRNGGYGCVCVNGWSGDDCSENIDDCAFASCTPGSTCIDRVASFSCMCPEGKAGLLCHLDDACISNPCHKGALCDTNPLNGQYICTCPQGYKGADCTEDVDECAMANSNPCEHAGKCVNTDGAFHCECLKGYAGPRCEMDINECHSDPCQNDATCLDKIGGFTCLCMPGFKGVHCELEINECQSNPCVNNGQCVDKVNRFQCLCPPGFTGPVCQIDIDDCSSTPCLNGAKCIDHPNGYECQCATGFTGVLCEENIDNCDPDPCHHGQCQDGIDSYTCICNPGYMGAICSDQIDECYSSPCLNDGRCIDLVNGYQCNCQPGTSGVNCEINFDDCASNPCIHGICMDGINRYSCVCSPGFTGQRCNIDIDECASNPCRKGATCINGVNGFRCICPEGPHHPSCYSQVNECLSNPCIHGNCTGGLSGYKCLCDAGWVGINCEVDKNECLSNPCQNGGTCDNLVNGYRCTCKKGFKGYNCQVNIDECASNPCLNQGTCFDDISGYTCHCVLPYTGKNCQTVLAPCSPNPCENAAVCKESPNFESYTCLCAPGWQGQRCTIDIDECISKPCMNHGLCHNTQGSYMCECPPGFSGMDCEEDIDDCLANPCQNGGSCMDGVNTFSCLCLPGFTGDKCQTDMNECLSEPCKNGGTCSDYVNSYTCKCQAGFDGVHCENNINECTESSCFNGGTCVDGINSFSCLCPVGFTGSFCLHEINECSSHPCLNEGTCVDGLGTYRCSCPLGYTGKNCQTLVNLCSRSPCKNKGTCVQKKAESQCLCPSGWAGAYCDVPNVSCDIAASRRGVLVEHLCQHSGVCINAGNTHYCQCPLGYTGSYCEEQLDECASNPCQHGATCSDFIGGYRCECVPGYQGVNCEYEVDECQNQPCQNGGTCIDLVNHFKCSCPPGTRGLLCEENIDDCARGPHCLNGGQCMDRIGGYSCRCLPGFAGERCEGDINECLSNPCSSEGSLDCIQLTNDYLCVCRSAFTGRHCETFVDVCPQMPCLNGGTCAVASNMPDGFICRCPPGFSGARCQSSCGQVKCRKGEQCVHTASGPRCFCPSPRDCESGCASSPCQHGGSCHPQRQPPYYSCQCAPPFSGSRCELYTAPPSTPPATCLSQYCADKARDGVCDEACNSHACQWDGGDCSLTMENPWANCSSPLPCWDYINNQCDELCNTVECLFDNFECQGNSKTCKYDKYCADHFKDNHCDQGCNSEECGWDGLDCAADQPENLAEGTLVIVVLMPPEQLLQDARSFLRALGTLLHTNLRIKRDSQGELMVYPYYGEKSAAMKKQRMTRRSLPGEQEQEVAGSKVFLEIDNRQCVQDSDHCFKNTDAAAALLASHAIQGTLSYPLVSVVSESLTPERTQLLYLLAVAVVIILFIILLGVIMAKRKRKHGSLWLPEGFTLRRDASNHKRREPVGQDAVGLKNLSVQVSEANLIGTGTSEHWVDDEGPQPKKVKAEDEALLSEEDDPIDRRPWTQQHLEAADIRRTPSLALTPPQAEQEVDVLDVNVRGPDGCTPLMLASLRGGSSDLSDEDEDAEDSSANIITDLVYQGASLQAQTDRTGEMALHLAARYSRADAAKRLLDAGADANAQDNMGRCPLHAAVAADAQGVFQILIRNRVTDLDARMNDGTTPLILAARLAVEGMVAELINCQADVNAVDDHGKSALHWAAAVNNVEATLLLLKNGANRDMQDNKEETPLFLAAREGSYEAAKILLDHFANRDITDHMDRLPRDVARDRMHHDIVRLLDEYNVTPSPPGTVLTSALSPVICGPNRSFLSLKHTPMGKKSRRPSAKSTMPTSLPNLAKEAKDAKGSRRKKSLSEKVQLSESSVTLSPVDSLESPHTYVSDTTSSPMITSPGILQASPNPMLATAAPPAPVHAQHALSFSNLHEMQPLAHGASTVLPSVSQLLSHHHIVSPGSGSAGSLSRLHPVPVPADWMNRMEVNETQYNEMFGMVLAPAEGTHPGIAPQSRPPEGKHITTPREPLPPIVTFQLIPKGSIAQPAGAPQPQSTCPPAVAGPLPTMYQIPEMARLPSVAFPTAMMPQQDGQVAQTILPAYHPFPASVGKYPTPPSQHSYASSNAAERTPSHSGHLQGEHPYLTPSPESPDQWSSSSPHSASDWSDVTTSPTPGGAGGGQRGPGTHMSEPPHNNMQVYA
Assay: Notch2 binders on small-molecule microarrays, primary screen, biochemical, small-molecule microarray, 635 nm fluorescence, stem cell growth factors (AID 1073)
Settings: Notch2 binding, higher = more signal
Kindly return fulfilled if reported composite z-score is no lower than -0.1; return not fulfilled if it is lower.

Some solved cases for reference:
Compound	Group Label
CN1C(=O)C2C=CC(C(O)c3ccc(I)cc3)N(NC(=O)OC(C)(C)C)C2C1=O (stereo unspecified)	fulfilled
C=CCC(OC(C)=O)[C@@H]1[C@@H](N(Cc2cc3ccccc3o2)C(=O)Cc2ccc(F)cc2)c2cc(OCCCO)ccc2N1C(=O)Cc1ccc(OC)cc1 (stereo partly specified)	not fulfilled
COCCNC(=O)OCC1CCCC2(CC(OC(=O)NCCc3ccc(F)cc3)CC(CCC(=O)N[C@@H](C)C(=O)OC)O2)O1 (stereo partly specified)	fulfilled
CC(C)=CCCC(C)=CCON=C1C[C@@H](O)[C@@H](O)[C@@H]2[C@@H]3C(=O)N(C[C@@H]4CCCO4)C(=O)[C@@H]3CC[C@@H]12	fulfilled
C=C(CCCC)C(=O)CC[C@@H](OC(C)=O)c1cccc(OCCO)c1	not fulfilled
CO[C@@H]1COC(=O)CC=C[C@@H](C)[C@@H]2C=C[C@H](O)[C@@H](COC(=O)CCC[C@H]1C)O2	not fulfilled

In: Determine whether measured composite z-score meets or exceeds -0.1 for O=C1C[C@@H](O)[C@@H](O)[C@@H]2[C@@H]3C(=O)N(C4CCCCC4)C(=O)[C@@H]3CC[C@H]12
Out: fulfilled

In: Would you kindly repeat that for CCOC(=O)NN=C1C[C@@H](O)[C@@H](O)[C@@H]2[C@@H]3C(=O)N(C4CCCCC4)C(=O)[C@@H]3CC[C@@H]12 ?
Out: fulfilled

In: How about CC(C)CON=C1C[C@@H](O)[C@@H](O)[C@@H]2[C@@H]3C(=O)N(Cc4ccccc4)C(=O)[C@@H]3CC[C@@H]12 ?
Out: fulfilled

In: // next record CC(C)CN1CCc2nc(-c3ccccc3)c3c(c2CC1)CO[C@@H](C)C3
Out: fulfilled

In: Let us now turn to COC(=O)[C@@H]1CCCN1C(=O)[C@@H](C)CO
Out: fulfilled

In: And then CCN1C(=O)[C@H]2[C@H]3[C@H](O)[C@H](O)CC(=NOC(C)CN4CCCCc5nc(C)c(C)cc54)[C@@H]3CC[C@H]2C1=O (stereo partly specified) , what is it?
Out: fulfilled
